Where do the numbers come from? From patent US8183380B2.

target: recombinant human 5-HT5A receptor (Homo sapiens, UniProt P47898); construct: expressed in transfected cells; host or cells: HEK-EBNA (Human Embryonic Kidney-EBNA) cells, transient cDNA expression; membranes; test: [3H]LSD radioligand binding assay; conditions: [3H]LSD (approximately 1 nM); membranes from transiently expressed 5-HT5A receptors in HEK-EBNA cells; Ki from IC50 by Cheng-Prussoff equation
Sequence (P47898 whole entry): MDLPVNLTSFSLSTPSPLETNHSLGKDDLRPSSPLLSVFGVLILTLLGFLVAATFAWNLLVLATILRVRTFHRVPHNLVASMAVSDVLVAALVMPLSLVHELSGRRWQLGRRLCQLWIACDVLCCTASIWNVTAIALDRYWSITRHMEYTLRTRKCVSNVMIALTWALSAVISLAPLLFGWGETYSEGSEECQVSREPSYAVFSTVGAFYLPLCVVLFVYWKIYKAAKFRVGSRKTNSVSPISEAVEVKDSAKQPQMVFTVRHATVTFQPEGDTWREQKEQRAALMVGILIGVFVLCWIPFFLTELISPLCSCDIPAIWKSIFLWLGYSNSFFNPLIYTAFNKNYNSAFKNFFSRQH
Could you please mark Criterion met for values of Ki below 7 nM and Criterion not met for values at or above it?

INSERT INTO measurements (compound, label_class) VALUES
  ('CC(C)N1CCC(NC(=O)Nc2ccc3nc(NC4CCc5cc(F)ccc54)ccc3c2)CC1 (racemic)', 'Criterion met'),
  ('O=S(=O)(Nc1ccc2nc(N[C@@H]3CCc4ccccc43)ccc2c1)N1CCC2(CC1)OCCO2', 'Criterion not met'),
  ('CC(C)N1CCC(NC(=O)Nc2ccc3nc(NC4CCc5ccc(F)cc54)ccc3c2)CC1 (racemic)', 'Criterion met'),
  ('COc1cccc2c1C(Nc1ccc3cc(NC(=O)NC4CCN(C5CC5)CC4)ccc3n1)CC2 (racemic)', 'Criterion met'),
  ('O=C(Nc1ccc2nc(NC3CCc4cc(F)ccc43)ccc2c1)C1CC1 (racemic)', 'Criterion not met'),
  ('COc1cccc2c1C(Nc1ccc3cc(NC(=O)NC4CC5CCCC(C4)N5C)ccc3n1)CC2 (racemic)', 'Criterion met'),
  ('CS(=O)(=O)CCN1CCC(NC(=O)Nc2ccc3nc(N[C@@H]4CCc5ccccc54)ccc3c2)CC1', 'Criterion met'),
  ('COc1ccc(C)c2c1C(Nc1ccc3cc(NC(=O)NC(C)C)ccc3n1)CC2 (racemic)', 'Criterion not met');

Identify whether the compound COc1cccc2c1C(Nc1ccc3cc(NC(=O)NC4CCN(CCF)CC4)ccc3n1)CCC2 (racemic) records Ki below 7 nM.
Criterion met

Next: NC(=S)Nc1ccc2nc(N[C@@H]3CCc4ccccc43)ccc2c1
Criterion not met

Proceed to CN(C1CC1)S(=O)(=O)Nc1ccc2nc(N[C@@H]3CCc4ccccc43)ccc2c1
Criterion not met

For CN(C)C(=O)CN1CCC(NC(=O)Nc2ccc3nc(N[C@@H]4CCc5ccccc54)ccc3c2)CC1 then?
Criterion met

Then COc1cccc2c1C(Nc1ccc3cc(NC(=O)NC4CCN(C5CC5)CC4)ccc3n1)CCC2 (racemic) ?
Criterion not met
